Where these numbers come from: patent US6340694B1

The following compounds are listed with their measured melting point values.

Consider the worked cases shown below.
CS(=O)(=O)c1ccc(-c2oc3ccccc3c(=S)c2-c2cccc(Cl)c2)cc1	196 to 198 °C
CS(=O)(=O)c1ccc(-c2oc3ccccc3c(=O)c2-c2ccncc2)cc1	204 to 205 °C
NS(=O)(=O)c1ccc(-c2oc3ccc(F)cc3c(=O)c2-c2ccc(Cl)cc2)cc1	215 to 217 °C
CS(=O)(=O)c1ccc(-c2oc3ccccc3c(=S)c2-c2ccc(Cl)c(Cl)c2)cc1	168 °C
NS(=O)(=O)c1ccc(-c2oc3ccccc3c(=O)c2-c2ccccc2)cc1	218 to 220 °C
Cc1ccc(-c2c(-c3ccc(S(C)(=O)=O)cc3)oc3ccccc3c2=S)cc1	204 to 205 °C
NS(=O)(=O)c1ccc(-c2oc3ccc(F)cc3c(=O)c2-c2cccc(F)c2)cc1	257 to 258 °C
CS(=O)(=O)c1ccc(-c2oc3ccccc3c(=O)c2-c2ccccc2)cc1	208 to 209 °C
CS(=O)(=O)c1ccc(-c2oc3ccccc3c(=O)c2-c2ccc(Cl)c(Cl)c2)cc1	164 to 165 °C
CS(=O)(=O)c1ccc(-c2oc3ccccc3c(=O)c2-c2cccc([N+](=O)[O-])c2)cc1	223 to 224 °C

Query: Please report melting point for the following compound: COc1ccc(-c2c(-c3ccc(S(C)(=O)=O)cc3)oc3ccccc3c2=S)cc1
Response: 199 °C

Query: Please report melting point for the following compound: CS(=O)(=O)c1ccc(-c2oc3ccccc3c(=O)c2-c2cncc(Br)c2)cc1
Response: 197 to 199 °C

Query: Please report melting point for the following compound: Cc1cccc(-c2c(-c3ccc(S(C)(=O)=O)cc3)oc3ccccc3c2=S)c1
Response: 201 to 202 °C

Query: Please report melting point for the following compound: CS(=O)(=O)c1ccc(-c2oc3ccccc3c(=O)c2-c2cccs2)cc1
Response: 165 to 167 °C

---

target: COX-2 (Mus musculus); construct: endogenous in cells; host or cells: peritoneal macrophages of C57BL/6 mouse, aspirin-pretreated, LPS-induced; assay: Evaluation of COX-2's inhibition efficacy (PGE2 radioimmuno assay, LPS-induced, aspirin-pretreated peritoneal macrophages); type: cell-based, C57BL/6 mouse; conditions: 10 μg/ml
Value kind: inhibition at 10 µg/mL (%)

Consider the worked cases shown below.
CS(=O)(=O)c1ccc(-c2oc3ccc(F)cc3c(=O)c2-c2cccnc2)cc1	78
CS(=O)(=O)c1ccc(-c2oc3ccccc3c(=O)c2-c2ccc(C=O)cc2)cc1	29
CS(=O)(=O)c1ccc(-c2oc3ccccc3c(=S)c2-c2ccc(F)cc2)cc1	100
COc1ccc(-c2c(-c3ccc(S(C)(=O)=O)cc3)oc3ccccc3c2=O)cc1	86
NS(=O)(=O)c1ccc(-c2oc3ccccc3c(=O)c2-c2ccccc2F)cc1	96
NS(=O)(=O)c1ccc(-c2oc3c(Cl)ccc(O)c3c(=O)c2-c2ccc(F)cc2)cc1	90

I. Cc1ccccc1-c1c(-c2ccc(S(C)(=O)=O)cc2)oc2ccccc2c1=O
II. COc1ccc2c(=O)c(-c3ccc(F)cc3)c(-c3ccc(S(N)(=O)=O)cc3)oc2c1
Query: Field: entry with larger inhibition at 10 µg/mL (options I / II ). Answer format: the label of the selected item.
Response: I
(I: 97%, II: 47%)

---

target: COX-2 (Mus musculus, UniProt Q05769); construct: endogenous in cells; host or cells: peritoneal macrophages of C57BL/6 mouse, aspirin-pretreated, LPS-induced; experiment: Evaluation of COX-2's inhibition efficacy (PGE2 radioimmuno assay, LPS-induced, aspirin-pretreated peritoneal macrophages); type: cell-based, C57BL/6 mouse; settings: 1 μg/ml
Sequence (Q05769 18-604): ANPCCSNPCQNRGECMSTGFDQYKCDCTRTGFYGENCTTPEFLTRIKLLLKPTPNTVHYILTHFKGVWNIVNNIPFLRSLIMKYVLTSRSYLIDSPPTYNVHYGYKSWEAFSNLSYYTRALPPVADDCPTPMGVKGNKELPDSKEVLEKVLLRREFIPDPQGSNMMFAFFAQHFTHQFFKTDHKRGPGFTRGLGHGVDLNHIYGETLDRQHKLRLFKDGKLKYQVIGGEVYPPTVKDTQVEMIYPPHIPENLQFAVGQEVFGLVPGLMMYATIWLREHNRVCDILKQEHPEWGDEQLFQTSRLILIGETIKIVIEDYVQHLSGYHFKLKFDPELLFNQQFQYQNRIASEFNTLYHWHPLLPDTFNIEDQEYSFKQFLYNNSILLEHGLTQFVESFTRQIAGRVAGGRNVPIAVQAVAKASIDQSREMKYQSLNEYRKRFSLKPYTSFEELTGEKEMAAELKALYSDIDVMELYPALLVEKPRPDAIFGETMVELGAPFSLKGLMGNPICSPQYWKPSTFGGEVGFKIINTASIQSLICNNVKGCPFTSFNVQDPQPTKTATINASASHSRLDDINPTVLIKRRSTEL
Value kind: inhibition at 1 µg/mL (%)

A. NS(=O)(=O)c1ccc(-c2oc3cc(F)ccc3c(=O)c2-c2ccc(F)cc2)cc1
B. Cc1cccc(-c2c(-c3ccc(S(C)(=O)=O)cc3)oc3ccccc3c2=S)c1
C. COc1ccc(-c2c(-c3ccc(S(C)(=O)=O)cc3)oc3ccccc3c2=O)cc1
D. CS(=O)(=O)c1ccc(-c2oc3ccccc3c(=O)c2-c2cncc(Br)c2)cc1
Query: Order the records by inhibition at 1 µg/mL, with each subsequent value no larger than the one before. Your task in answering is to list the labels in the requested order.
Response: A, C, B, D

I. NS(=O)(=O)c1ccc(-c2oc3ccc(F)cc3c(=O)c2-c2ccc(F)cc2)cc1
II. CS(=O)(=O)c1ccc(-c2oc3ccccc3c(=O)c2-c2cccc(Cl)c2Cl)cc1
Query: Field: entry with larger inhibition at 1 µg/mL (options I / II ). Answer format: the label of the selected item.
Response: I
(I: 100%, II: 32%)

P. Cc1ccc(-c2c(-c3ccc(S(N)(=O)=O)cc3)oc3ccc(F)cc3c2=O)cc1
Q. CS(=O)(=O)c1ccc(-c2oc3ccccc3c(=O)c2-c2ccc(C(F)(F)F)nc2)cc1
Query: I'm curious, which of these has a smaller inhibition at 1 µg/mL number: P or Q ? Answer format: the label of the selected item.
Response: Q

A. Cc1ccccc1-c1c(-c2ccc(S(C)(=O)=O)cc2)oc2ccccc2c1=O
B. CS(=O)(=O)c1ccc(-c2oc3ccccc3c(=O)c2-c2ccccn2)cc1
Query: Field: entry with larger inhibition at 1 µg/mL (options A / B ). Answer format: the label of the selected item.
Response: A

A. COc1ccc(-c2c(-c3ccc(S(N)(=O)=O)cc3)oc3ccccc3c2=O)cc1
B. Cc1ccc(-c2c(-c3ccc(S(C)(=O)=O)cc3)oc3ccccc3c2=O)cc1
Query: I'm curious, which of these has a smaller inhibition at 1 µg/mL number: A or B ? Answer format: the label of the selected item.
Response: B

a. CS(=O)(=O)c1ccc(-c2oc3ccccc3c(=S)c2-c2ccccc2)cc1
b. Cc1ccccc1-c1c(-c2ccc(S(C)(=O)=O)cc2)oc2ccccc2c1=S
Query: I'm curious, which of these has a smaller inhibition at 1 µg/mL number: a or b ? Answer format: the label of the selected item.
Response: b

---

biological target: COX-2 (Mus musculus); construct: endogenous in cells; host or cells: peritoneal macrophages of C57BL/6 mouse, aspirin-pretreated, LPS-induced; assay: Evaluation of COX-2's inhibition efficacy (PGE2 radioimmuno assay, LPS-induced, aspirin-pretreated peritoneal macrophages); type: cell-based, C57BL/6 mouse; settings: 10 μg/ml
Value kind: inhibition at 10 µg/mL (%)

NS(=O)(=O)c1ccc(-c2oc3ccccc3c(=O)c2-c2ccccc2)cc1	92

a. NS(=O)(=O)c1ccc(-c2oc3ccccc3c(=S)c2-c2ccc(F)cc2)cc1
b. CS(=O)(=O)c1ccc(-c2oc3ccccc3c(=O)c2-c2ccccn2)cc1
c. CS(=O)(=O)c1ccc(-c2oc3ccccc3c(=O)c2-c2ccncc2)cc1
Query: Rank by inhibition at 10 µg/mL (largest to smallest). Your task in answering is to list the labels in the requested order.
Response: a, b, c
(a: 100%, b: 44%, c: 24%)

---

test system: edema in mouse's ear; assay: Depressant action on edema in mouse's ear (TPA-induced, myeloperoxidase); assay type: in vivo, ICR mouse; details: topical on ear, TPA 25 μg, 5 hours
The following compounds are listed with their measured depressant rate of ear edema, ED50 values.

Consider the worked cases shown below.
CS(=O)(=O)c1ccc(-c2oc3ccccc3c(=O)c2-c2ccccc2F)cc1	0.4 mg/ear, ED50
CS(=O)(=O)c1ccc(-c2oc3ccccc3c(=O)c2-c2ccc(F)c(Cl)c2)cc1	0.6 mg/ear, ED50

Query: Please report depressant rate of ear edema, ED50 for the following compound: Cc1ccc(-c2c(-c3ccc(S(C)(=O)=O)cc3)oc3ccccc3c2=O)cc1
Response: 1.2 mg/ear, ED50

Query: Please report depressant rate of ear edema, ED50 for the following compound: COc1ccc(-c2c(-c3ccc(S(C)(=O)=O)cc3)oc3ccccc3c2=O)cc1
Response: 0.6 mg/ear, ED50

---

The following compounds are listed with their measured melting point values.

Consider the worked cases shown below.
CS(=O)(=O)c1ccc(-c2oc3ccccc3c(=S)c2-c2cccc(Cl)c2Cl)cc1	191 to 192 °C
CS(=O)(=O)c1ccc(-c2oc3ccccc3c(=S)c2-c2ccccc2)cc1	204 to 206 °C
Cc1ccc(-c2c(-c3ccc(S(C)(=O)=O)cc3)oc3ccccc3c2=O)cn1	195 to 196 °C

# evaluate next
Query: Please report melting point for the following compound: COc1ccc(-c2c(-c3ccc(S(C)(=O)=O)cc3)oc3ccccc3c2=O)cc1
Response: 212 to 213 °C

---

molecular target: COX-1 (Mus musculus, UniProt P22437); construct: there is no pre-treatment of aspirin and LPS in the adhesion of macrophage; endogenous in cells; host or cells: peritoneal macrophages of C57BL/6 mouse, without aspirin and LPS pre-treatment; test: Evaluation of COX-1's inhibition efficacy (macrophages without aspirin and LPS pre-treatment); assay type: cell-based, C57BL/6 mouse; settings: 10 μg/ml
Sequence (P22437 27-602): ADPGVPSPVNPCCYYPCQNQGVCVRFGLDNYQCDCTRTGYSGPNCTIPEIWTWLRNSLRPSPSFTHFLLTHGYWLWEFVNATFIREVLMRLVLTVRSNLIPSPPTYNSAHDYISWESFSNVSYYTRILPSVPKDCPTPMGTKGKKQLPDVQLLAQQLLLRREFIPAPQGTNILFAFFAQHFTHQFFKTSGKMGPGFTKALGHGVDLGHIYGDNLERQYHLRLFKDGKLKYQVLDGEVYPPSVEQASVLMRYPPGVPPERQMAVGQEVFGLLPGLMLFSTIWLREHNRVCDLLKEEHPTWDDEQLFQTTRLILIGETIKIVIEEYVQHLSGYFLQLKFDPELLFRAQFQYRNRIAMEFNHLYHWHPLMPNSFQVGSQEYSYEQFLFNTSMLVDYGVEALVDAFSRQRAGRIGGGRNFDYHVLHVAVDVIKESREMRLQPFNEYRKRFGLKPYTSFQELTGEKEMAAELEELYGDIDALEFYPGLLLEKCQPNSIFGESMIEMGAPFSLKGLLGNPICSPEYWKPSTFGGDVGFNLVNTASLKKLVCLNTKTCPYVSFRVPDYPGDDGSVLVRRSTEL
Value kind: inhibition at 10 µg/mL (%)

Consider the worked cases shown below.
NS(=O)(=O)c1ccc(-c2oc3ccccc3c(=O)c2-c2ccccc2)cc1	61
CS(=O)(=O)c1ccc(-c2oc3ccc(F)cc3c(=O)c2-c2cccnc2)cc1	12

P. NS(=O)(=O)c1ccc(-c2oc3ccc(F)cc3c(=O)c2-c2cccc(F)c2)cc1
Q. COc1ccc(-c2c(-c3ccc(S(C)(=O)=O)cc3)oc3ccccc3c2=O)cn1
R. NS(=O)(=O)c1ccc(-c2oc3ccccc3c(=O)c2-c2ccc(Cl)c(Cl)c2)cc1
S. CS(=O)(=O)c1ccc(-c2oc3ccccc3c(=O)c2-c2cncc(Br)c2)cc1
Query: Rank by inhibition at 10 µg/mL (largest to smallest). Your task in answering is to list the labels in the requested order.
Response: R, Q, S, P
